- system: UniProt:P00918
Label key: True means Kd under 2 nM; False means Kd of 2 nM or more.

Example cases with answers are listed next.
[
  {
    "smiles.input": "NS(=O)(=O)c1ccc(C(=O)NCSc2ccccc2)cc1",
    "answer.label": "True"
  },
  {
    "smiles.input": "NS(=O)(=O)c1ccc(C(=O)NCc2ccccn2)cc1",
    "answer.label": "False"
  },
  {
    "smiles.input": "NS(=O)(=O)c1ccc(C(=O)NCC2CCCCC2)cc1",
    "answer.label": "True"
  },
  {
    "smiles.input": "NS(=O)(=O)c1ccc(C(=O)NCC23CC4CC(CC(C4)C2)C3)cc1",
    "answer.label": "False"
  },
  {
    "smiles.input": "NS(=O)(=O)c1ccc(C(=O)NCC(=O)NCC(=O)NCC(=O)OCc2ccccc2)cc1",
    "answer.label": "False"
  }
]

Record NS(=O)(=O)c1ccc(C(=O)N[C@H](C(=O)NCC(=O)NCC(=O)OCc2ccccc2)c2ccccc2)cc1 : is its Kd strictly below 2 nM?
True

Record NS(=O)(=O)c1ccc(C(=O)NCc2cccnc2)cc1 : is its Kd strictly below 2 nM?
False
